Biological target: T1, biotin-labeled IL-2 with a human Fc-tag (Sanyou Biopharmaceutical, GenBank Accession No: P60568-1) (UniProt P60568 21-153, biotin-labeled (site not stated))
T1 construct: Bought reagent; also called biotinylated IL-2-Fc; not shown: human Fc-tag
T1 sequence (P60568 21-153 limits assumed, one chain of several): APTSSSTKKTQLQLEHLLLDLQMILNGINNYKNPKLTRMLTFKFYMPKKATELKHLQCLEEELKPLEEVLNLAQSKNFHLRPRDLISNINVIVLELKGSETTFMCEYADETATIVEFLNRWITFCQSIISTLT
Test: competition ELISA: antibody titrated, pre-incubated with biotin-IL-2-Fc (5 µg/mL); competitor coated IL-2Rβ-Fc
metric.name: IC50 (µg/mL)
// note: answer is a bare numeric in µg/mL

| binder | measurement.units | IC50 |
| --- | --- | --- |
| C2-53 full-length fully human anti-IL-2 antibody (antibody, human IgG1, kappa, L234A L235A, V domains shown, Human IgG1 with LALA mutation, kappa light chain) VH: EVQLVESGGGLVQPGRSLILSCAASGFTFDDYAMHWVRQAPGKGLEWVSGISWNSGSIGYADSVKGRFTISRDNAKNSLYLQMNSLRAEDTALYYCAKDQLRWGTYYYYGMDVWGQGTTVTVSS VL: DIQMTQSPSTLSASVGDRVTITCRASQSVSIWVAWYQQKPGKAPKLLIYKASSLERGVPTRFSGSGSGTEFTLTISSLQPEDFATYHCQQYDTGATFGQGTKVEMKR | µg/mL | 1.44 |
| D2-60 full-length fully human anti-IL-2 antibody (antibody, human IgG1, kappa, L234A L235A, V domains shown, Human IgG1 with LALA mutation, kappa light chain) VH: QVQLVQSGAEVKKPGASVKVSCKASGYTFTSYGISWVRQAPGQGLEWMGWISAYNGNTNYAQKLQGRVTMTTDTSTSTAYMELRSLRSDDTAVYYCAREYSSWYSGGMDVWGQGTTVTVSS VL: DIQMTQSPSSLSASVGDRVTITCRASQGISNYLAWYQQKPGKVPKLLIYAASTLQSGVPSRFSGSGSGTDFTLTISSLQPEDVATYYCQKYDSAPFTFGQGTRLEIKR | µg/mL | 8.27 |
| A2-22 full-length fully human anti-IL-2 antibody (antibody, human IgG1, kappa, L234A L235A, V domains shown, Human IgG1 with L234A/L235A (LALA), kappa light chain; expressed in HEK293) VH: QVQLVQSGAEVKKPGASVKVSCKASGYTFTSYYMHWVRQAPGQGLEWMGIINPSGGSTSYAQKFQGRVTMTRDTSTSTVYMELSSLRSEDTAVYYCAREDWMEYEYYYGMDVWGQGTLVTVSS VL: EIVLTQSPGTLSLSPGERATLSCRASQSVSNNYLAWYQQKPGQAPRLLIYGASSRATGIPDRFSGSGSGTDFTLTISRLEPEDFAVYSCQQYGSSPLTFGQGTRLEIKR | µg/mL | 2.73 |
| D3-68 full-length fully human anti-IL-2 antibody (antibody, human IgG1, kappa, L234A L235A, V domains shown, Human IgG1 with LALA mutation, kappa light chain) VH: QVQLVQSGPEVKKPGASVKVSCKASGYTFTSYGISWVRRAPGQGLEWMGWISAYNGNTNYAQKLQGRVTMTTDTSTSTAYMELRSLRSDDTAVYYCARDLQSPTYYYGSGVIDYWGQGTLVTVSS VL: DIQLTQSPSTLSASVGDRVTISCRASRAVSPWLAWYQHRPGQAPKLLIYAASSLQSGVPSRFSGSGSGTDFTLTISSLQPEDFATYYCQQYRSYPFTFGPGTTVDIRR | µg/mL | 2.13 |

Then this binder:
Look up IC50 for this binder: A3-21 full-length fully human anti-IL-2 antibody (antibody, human IgG1, lambda, L234A L235A, V domains shown, Human IgG1 with LALA mutation) VH: EVQLLESGGGLAQPGGSLRLSCAGSGFTFSSYAMSWVRQAPGKGLEWVSGITGTGYRTYYADSVKGRFTVSRDNSRNTVYLQMNSLRAEDTAVYYCVRESGHYYGWFDSWGQGTLVTVSS VL: QSALTQPPSVSGAPGQRVTISCTGSSSNIGAGYNVHWYQQVPGTVPKLLIDGKGNRPSGVPDRFSGSKSGTSASLAITGLQAEDEADYYCQSYDYMLSGSVVFGRGTKLTVLG
3.48
